Listed molecules paired with reported pIC50
molecular target: NaV1.6 (Homo sapiens (Human), UniProt Q9UQD0); assay: Sodium Influx Assay (Flux), NaV1.6; settings: read-out: Flux NaV1.6 IC50; Trex HEK293 cells, ANG2 dye; arithmetic mean
Sequence (Q9UQD0 whole entry, looked up): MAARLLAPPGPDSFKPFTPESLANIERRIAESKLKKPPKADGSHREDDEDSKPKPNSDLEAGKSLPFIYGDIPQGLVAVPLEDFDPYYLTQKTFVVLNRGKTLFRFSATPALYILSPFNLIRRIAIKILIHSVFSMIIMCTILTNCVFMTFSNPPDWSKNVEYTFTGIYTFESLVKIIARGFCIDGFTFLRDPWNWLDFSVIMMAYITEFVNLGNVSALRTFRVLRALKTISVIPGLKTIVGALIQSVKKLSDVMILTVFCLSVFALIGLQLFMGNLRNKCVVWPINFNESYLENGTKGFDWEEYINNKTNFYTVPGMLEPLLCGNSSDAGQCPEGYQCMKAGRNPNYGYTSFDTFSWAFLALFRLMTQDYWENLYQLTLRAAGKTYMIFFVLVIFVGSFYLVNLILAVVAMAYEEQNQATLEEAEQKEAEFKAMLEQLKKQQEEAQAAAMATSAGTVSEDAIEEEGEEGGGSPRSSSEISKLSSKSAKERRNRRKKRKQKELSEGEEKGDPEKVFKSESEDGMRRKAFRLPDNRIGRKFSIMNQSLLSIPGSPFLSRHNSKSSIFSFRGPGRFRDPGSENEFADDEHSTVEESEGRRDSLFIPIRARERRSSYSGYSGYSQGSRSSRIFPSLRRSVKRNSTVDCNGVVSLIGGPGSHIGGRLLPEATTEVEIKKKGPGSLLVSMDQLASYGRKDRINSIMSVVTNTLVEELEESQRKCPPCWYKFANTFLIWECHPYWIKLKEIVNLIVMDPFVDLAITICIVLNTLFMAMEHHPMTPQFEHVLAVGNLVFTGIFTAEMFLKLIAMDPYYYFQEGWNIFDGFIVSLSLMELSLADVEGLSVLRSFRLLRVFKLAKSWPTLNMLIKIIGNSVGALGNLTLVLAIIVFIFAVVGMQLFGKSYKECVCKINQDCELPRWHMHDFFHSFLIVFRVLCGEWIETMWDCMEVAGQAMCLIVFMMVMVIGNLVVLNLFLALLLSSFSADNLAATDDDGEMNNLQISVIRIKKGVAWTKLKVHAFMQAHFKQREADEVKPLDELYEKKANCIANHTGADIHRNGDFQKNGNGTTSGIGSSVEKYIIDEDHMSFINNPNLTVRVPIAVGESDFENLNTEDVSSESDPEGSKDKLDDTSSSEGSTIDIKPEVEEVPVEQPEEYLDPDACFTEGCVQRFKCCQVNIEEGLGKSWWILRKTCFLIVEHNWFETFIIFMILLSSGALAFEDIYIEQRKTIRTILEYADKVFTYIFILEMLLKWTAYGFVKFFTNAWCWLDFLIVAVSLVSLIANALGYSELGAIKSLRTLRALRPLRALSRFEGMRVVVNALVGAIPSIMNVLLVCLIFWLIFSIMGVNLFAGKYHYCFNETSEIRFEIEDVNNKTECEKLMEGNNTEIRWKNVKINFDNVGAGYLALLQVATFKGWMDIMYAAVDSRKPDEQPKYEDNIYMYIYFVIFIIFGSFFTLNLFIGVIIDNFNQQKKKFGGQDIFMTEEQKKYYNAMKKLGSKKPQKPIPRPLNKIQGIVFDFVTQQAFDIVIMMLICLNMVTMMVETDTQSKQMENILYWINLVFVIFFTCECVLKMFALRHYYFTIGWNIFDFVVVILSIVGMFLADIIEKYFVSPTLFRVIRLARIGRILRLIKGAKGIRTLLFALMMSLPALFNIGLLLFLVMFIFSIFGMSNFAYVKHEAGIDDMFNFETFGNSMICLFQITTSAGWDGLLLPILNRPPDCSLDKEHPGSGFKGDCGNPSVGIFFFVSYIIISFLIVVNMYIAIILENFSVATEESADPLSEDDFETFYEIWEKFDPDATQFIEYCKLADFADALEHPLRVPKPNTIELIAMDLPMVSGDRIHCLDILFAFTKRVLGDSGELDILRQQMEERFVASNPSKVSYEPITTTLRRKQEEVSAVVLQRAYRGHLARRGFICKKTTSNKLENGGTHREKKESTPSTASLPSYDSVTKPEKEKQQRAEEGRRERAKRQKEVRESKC
Sequence (Q07699 whole entry partner, looked up): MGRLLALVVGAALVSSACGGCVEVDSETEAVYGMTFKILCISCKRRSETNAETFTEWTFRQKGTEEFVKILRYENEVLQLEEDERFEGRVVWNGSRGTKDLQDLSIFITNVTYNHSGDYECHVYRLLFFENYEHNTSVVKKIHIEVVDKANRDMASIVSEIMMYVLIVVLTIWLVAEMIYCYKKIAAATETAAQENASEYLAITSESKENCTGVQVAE
Expect pIC50 as a plain number equal to -log10 of the molar concentration.

For orientation, consider the following solved cases.
>>> measurement("Cc1cc(S(=O)(=O)Nc2cscn2)c(F)cc1N(C)[C@H]1CCN(Cc2ccn(CC(F)(F)F)n2)C1 [Example 118]")
7.24
>>> measurement("CN(c1cc(F)c(S(=O)(=O)Nc2cscn2)cc1Cl)[C@H]1CCN(Cc2c(F)cccc2Cl)C1 [Example 169, 2,2,2-trifluoroacetate]")
6.09
>>> measurement("Cc1cc(S(=O)(=O)Nc2cscn2)c(F)cc1N(C)[C@H]1CCN(Cc2cccc(F)c2F)C1 [compound 156]")
6.53
>>> measurement("Cc1cc(S(=O)(=O)Nc2cscn2)c(F)cc1N(C)[C@H]1CCN(Cc2ccn(CC(F)F)n2)C1 [Example 153, 2,2,2-trifluoroacetate]")
6.73

Lab note: need pIC50 for CN(c1cc(F)c(S(=O)(=O)Nc2cscn2)cc1F)[C@H]1CCN(Cc2ccccc2)C1 [Example 293, 2,2,2-trifluoroacetate] on NaV1.6 (Homo sapiens (Human), UniProt Q9UQD0), anyone have it?
4.96

Lab note: need pIC50 for Cc1c(OC2CCN(Cc3ccccc3)CC2)cc(F)c(S(=O)(=O)Nc2nccs2)c1F [Example 223, 2,2,2-trifluoroacetate] on NaV1.6 (Homo sapiens (Human), UniProt Q9UQD0), anyone have it?
8.05

Lab note: need pIC50 for CN(c1cc(F)c(S(=O)(=O)Nc2cscn2)cc1Cl)[C@H]1CCN(Cc2ccn(C)n2)C1 [Example 183] on NaV1.6 (Homo sapiens (Human), UniProt Q9UQD0), anyone have it?
5.16

---

Listed compounds paired with reported pIC50
molecular target: NaV1.5 (Homo sapiens (Human)); assay: Sodium Influx Assay (Flux), NaV1.5; details: read-out: Flux NaV1.5 IC50; Trex HEK293 cells, ANG2 dye; arithmetic mean
Sequence (Q14524 other isoform, or with tags, fused parts or gaps): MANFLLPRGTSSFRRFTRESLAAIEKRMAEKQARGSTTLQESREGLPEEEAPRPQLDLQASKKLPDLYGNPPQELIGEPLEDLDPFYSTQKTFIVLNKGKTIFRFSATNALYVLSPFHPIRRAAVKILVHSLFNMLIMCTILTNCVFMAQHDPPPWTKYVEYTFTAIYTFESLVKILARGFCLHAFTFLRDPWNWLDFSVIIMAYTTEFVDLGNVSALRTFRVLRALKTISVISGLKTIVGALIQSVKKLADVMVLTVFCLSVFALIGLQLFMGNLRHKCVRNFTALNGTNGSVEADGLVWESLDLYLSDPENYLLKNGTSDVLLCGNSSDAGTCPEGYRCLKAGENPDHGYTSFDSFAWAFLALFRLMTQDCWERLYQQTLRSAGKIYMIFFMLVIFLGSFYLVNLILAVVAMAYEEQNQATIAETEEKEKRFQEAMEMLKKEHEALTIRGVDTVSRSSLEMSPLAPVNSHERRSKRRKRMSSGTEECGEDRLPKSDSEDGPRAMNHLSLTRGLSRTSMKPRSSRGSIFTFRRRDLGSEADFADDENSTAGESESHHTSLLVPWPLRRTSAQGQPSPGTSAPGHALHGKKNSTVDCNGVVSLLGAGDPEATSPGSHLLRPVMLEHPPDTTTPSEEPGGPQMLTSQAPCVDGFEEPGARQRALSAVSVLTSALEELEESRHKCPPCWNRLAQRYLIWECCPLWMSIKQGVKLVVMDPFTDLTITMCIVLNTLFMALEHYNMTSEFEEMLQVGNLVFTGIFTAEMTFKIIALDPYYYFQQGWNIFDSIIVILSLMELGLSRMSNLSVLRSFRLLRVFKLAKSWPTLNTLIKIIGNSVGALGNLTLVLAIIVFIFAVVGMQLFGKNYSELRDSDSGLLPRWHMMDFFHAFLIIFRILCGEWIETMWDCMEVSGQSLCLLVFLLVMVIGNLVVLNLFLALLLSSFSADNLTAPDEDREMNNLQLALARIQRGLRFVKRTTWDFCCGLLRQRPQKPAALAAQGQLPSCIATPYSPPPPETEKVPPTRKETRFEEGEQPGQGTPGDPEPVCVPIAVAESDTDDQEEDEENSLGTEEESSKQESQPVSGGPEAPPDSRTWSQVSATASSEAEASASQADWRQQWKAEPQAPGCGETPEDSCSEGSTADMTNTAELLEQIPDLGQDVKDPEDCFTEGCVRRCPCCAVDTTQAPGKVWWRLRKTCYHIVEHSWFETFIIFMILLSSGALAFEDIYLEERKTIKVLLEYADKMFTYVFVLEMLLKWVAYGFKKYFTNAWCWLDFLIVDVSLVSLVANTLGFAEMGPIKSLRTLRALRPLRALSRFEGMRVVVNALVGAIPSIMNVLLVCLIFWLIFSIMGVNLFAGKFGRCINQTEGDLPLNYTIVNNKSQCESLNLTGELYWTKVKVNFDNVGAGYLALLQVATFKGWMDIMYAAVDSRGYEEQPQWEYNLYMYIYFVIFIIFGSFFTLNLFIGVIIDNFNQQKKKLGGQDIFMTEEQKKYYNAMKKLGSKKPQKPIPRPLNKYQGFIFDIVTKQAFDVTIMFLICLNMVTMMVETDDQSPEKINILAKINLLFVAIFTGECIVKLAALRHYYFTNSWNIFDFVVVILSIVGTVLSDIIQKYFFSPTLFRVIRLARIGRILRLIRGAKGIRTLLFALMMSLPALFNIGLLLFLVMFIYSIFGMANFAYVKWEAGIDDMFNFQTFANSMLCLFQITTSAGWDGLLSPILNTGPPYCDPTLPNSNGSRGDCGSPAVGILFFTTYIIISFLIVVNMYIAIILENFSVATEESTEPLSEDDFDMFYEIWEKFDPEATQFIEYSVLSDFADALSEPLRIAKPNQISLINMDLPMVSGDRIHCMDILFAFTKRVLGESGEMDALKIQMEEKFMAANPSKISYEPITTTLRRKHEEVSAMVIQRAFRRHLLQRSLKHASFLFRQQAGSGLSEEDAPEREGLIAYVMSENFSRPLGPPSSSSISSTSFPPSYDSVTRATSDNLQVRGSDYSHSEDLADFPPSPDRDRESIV
Counter-ions that a name gives are not always drawn.
Expect pIC50 as a plain number equal to -log10 of the molar concentration.

>>> measurement("CN(c1cc(F)c(S(=O)(=O)Nc2cscn2)cc1Cl)[C@H]1CCN(Cc2cccc(C(F)(F)F)c2)C1")
5.26

I would be grateful if you could share the reported pIC50 for O=S(=O)(Nc1cscn1)c1c(F)cc(O[C@H]2CCN(Cc3ccccc3)C2)c(Br)c1F [Example 274, formate] .
5.00

I would be grateful if you could share the reported pIC50 for "Cc1cc(S(=O)(=O)Nc2cscn2)c(F)cc1N(C)[C@H]1CCN(Cc2csc(C3CC3)n2)C1" .
4.98

I would be grateful if you could share the reported pIC50 for CN(c1ccc(S(=O)(=O)Nc2ncns2)cc1Cl)[C@H]1CCN(Cc2cc(Cl)ccc2F)C1 [Example 33, 2,2,2-trifluoroacetate] .
5.11

---

target: NaV1.6 (Homo sapiens (Human)); test: Sodium Influx Assay (Flux), NaV1.6; conditions: read-out: Flux NaV1.6 IC50; Trex HEK293 cells, ANG2 dye; arithmetic mean
Structures can show the parent of a compound that is named as a salt.
Listed molecules paired with reported IC50
Please reply with the bare figure in nM and do not write the unit itself.

For orientation, consider the following solved cases.
>>> measurement("CN(c1cc(F)c(S(=O)(=O)Nc2cscn2)cc1Cl)[C@H]1CCN(Cc2cc(F)ccc2F)C1 [Example 207]")
1380
>>> measurement("CN(c1ccc(S(=O)(=O)Nc2ncns2)cc1Cl)[C@H]1CCN(Cc2ccccc2Cl)C1 [Example 252, 2,2,2-trifluoroacetate]")
304
>>> measurement("Cc1cc(S(=O)(=O)Nc2cscn2)c(F)cc1N(C)[C@H]1CCN(Cc2cc3n(n2)CCCC3)C1 [Example 151]")
410

// next entry
Lab note: need IC50 for Cc1nc(CN2CC[C@H](N(C)c3cc(F)c(S(=O)(=O)Nc4cscn4)cc3C)C2)cs1 [Example 110, formate] on NaV1.6 (Homo sapiens (Human)), anyone have it?
262
